// data source = patent US20210040089A1

- Tested on: Phospho-ERK1/2(THR202/TYR204) in NCI-H358 cells express KRAS G12C
- method_description: Phospho-ERK1/2(THR202/TYR204) HTRF assay
- Format: cell-based
- condition_info: Homo sapiens; NCI-H358, 2 hours incubation; read-out: p-ERK inhibition in NCI-H358 IC50
With a cut-off of 300 nM, any IC50 strictly below it is called label 1; any IC50 meeting it or above is called label 0.

Consider the worked cases shown below.
> print(dat)
                                   compound  qualitative.label
1  CN(C)CC1(COc2nc3c(c(N4CCN(C(=O)/C=C/CF)[C@@H](CC#N)C4)n2)CCN(c2cccc4cccc(Cl)c24)C3)CC1 [Compound 84]            label 1
2  C=CC(=O)N1CCN(c2nc(OCC3CCC(N(C)C)C3)nc3c2CCN(c2cccc(F)c2Cl)C3)CC1CC#N (stereo not drawn) [Compound 29]            label 0
3  C=CC(=O)N1CCN(c2nc(OCC3(N(C)C)CC3)nc3c2CCN(c2cccc4cccc(C)c24)C3)CC1CC#N (stereo not drawn) [Compound 20]            label 1
4  C=CC(=O)N1CCN(c2nc(OCC3(CN(C)C)CC3)nc3c2CCN(c2cccc4cccc(C)c24)C3)CC1CC#N (stereo not drawn) [Compound 47]            label 1
5  Cc1cccc2cccc(N3CCc4c(nc(OCC5(CN(C)C)CC5)nc4N4CCN(C(=O)/C=C/CF)C(CC#N)C4)C3)c12 (stereo not drawn) [Compound 77]            label 1

## Task Field: below-cutoff. Rule: recorded IC50 strictly less than 300 nM. Subject: C=CC(=O)N1CCN(c2nc(OCC3CCCC3N(C)C)nc3c2CCN(c2cccc(Cl)c2Cl)C3)CC1CC#N (stereo not drawn) [Compound 25]
## Result label 1

## Task Same again, this time with C=C(F)C(=O)N1CCN(c2nc(OCC3(CN(C)C)CC3)nc3c2CCN(c2cccc4cccc(C)c24)C3)C[C@@H]1CC#N [Compound 83]
## Result label 1

## Task Same again, this time with C=CC(=O)N1CCN(c2nc(OC3CCC(N(C)C)C3)nc3c2CCN(c2cccc4ccccc24)C3)CC1CC#N (stereo not drawn) [Compound 13]
## Result label 0

## Task Same again, this time with C=CC(=O)N1CCN(c2nc(OCC3(CN4CCN(C)CC4)CC3)nc3c2CCN(c2cccc4cccc(C)c24)C3)CC1CC#N (stereo not drawn) [Compound 58]
## Result label 1

## Task Same again, this time with C=CC(=O)N1CCN(c2nc(OCC3(CN4CCCC4)CCC3)nc3c2CCN(c2cccc4cccc(C)c24)C3)CC1CC#N (stereo not drawn) [Compound 45]
## Result label 1
